# System: MHV (strain MHV-A59)
# condition_set: 20 uM; L929 cells
test_readout: Toxic (noted in place of plaque reduction)

> print(dat)
                       structure.string  endpoint.value
1       N=C(N)NC(=O)/C=C/c1ccc(F)c(F)c1           Toxic
2       N=C(N)NC(=O)/C=C/C=C/c1ccccc1Br           Toxic
3        N=C(N)NC(=O)/C=C/c1cc(Br)ccc1F           Toxic
4   CC(C)(C)c1cccc(/C=C/C(=O)NC(=N)N)c1           Toxic
5         N=C(N)NC(=O)/C=C/c1cccc(F)c1F           Toxic
6  N=C(N)NC(=O)/C=C/c1cccc(-c2ccccc2)c1           Toxic
